# tested-system: EGFR wild type (EGFR WT) (Homo sapiens (Human))
# Sequence (P00533 25-1210): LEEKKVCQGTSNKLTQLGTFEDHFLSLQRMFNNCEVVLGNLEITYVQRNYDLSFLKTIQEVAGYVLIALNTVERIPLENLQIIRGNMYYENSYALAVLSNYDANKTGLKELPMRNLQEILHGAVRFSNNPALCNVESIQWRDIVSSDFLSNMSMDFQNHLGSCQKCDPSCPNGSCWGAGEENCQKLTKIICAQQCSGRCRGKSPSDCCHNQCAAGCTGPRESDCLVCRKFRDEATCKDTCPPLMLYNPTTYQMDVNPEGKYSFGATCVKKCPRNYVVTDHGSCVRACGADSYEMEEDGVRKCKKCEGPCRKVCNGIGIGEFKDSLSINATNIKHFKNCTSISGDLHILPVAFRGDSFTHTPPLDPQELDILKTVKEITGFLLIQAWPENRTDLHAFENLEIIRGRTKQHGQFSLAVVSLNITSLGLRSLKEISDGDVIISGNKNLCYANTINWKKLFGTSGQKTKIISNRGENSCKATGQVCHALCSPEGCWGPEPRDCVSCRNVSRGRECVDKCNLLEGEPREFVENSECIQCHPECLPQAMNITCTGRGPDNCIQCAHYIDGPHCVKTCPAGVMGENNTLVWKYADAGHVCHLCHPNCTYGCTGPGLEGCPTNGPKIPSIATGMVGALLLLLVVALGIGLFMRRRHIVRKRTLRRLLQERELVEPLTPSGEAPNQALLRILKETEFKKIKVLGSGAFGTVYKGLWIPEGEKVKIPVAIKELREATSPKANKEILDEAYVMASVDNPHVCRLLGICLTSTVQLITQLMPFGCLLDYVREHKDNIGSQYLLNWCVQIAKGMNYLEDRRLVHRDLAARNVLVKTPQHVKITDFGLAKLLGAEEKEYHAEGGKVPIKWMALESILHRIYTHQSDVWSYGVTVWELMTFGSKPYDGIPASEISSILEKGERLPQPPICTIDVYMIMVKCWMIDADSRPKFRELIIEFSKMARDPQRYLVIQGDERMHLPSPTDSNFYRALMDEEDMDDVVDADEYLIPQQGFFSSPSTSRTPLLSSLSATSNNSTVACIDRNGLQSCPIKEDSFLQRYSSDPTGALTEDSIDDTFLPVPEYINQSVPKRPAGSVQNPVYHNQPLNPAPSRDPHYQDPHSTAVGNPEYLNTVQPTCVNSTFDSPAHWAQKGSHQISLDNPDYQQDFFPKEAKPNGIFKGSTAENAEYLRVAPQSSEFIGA
# experimental-protocol: Cellular Phosphorylation Assay, Assay 5 (EGF-stimulated EGFR phosphorylation, NIH 3T3 cells)
# Type: cell-based
# measurement-parameters: cellular EGFR WT phosphorylation, EGF-stimulated
pIC50: −log10 of the molar value.
assay-endpoint: pIC50

C=CC(=O)N1CCN(c2ccc3ncnc(Nc4cc(Cl)c(Oc5ccn6ncnc6c5)cc4F)c3n2)C[C@H]1C(C)(C)C [Example 309] :: ≤ 5.30

**Q:** In one line, give reported pIC50 of the entry C=CC(=O)N1C[C@@H]2C[C@H]1CC[C@@H]2c1ccc2ncnc(Nc3cc(C)c(Oc4ccn5ncnc5c4)cc3F)c2n1 [Example 380] .
**A:** ≤ 5.30

**Q:** In one line, give reported pIC50 of the entry C=CC(=O)N1CCN(c2ccc3ncnc(Nc4ccc(Oc5ccc6scnc6c5)c(C)c4)c3n2)CC1(C)C [Example 432] .
**A:** 6.55

**Q:** In one line, give reported pIC50 of the entry C=CC(=O)N1CCN(c2ccc3ncnc(Nc4ccc(Oc5ccn6ncnc6c5)c(Cl)c4F)c3n2)C[C@@H]1C(C)C [Example 293] .
**A:** ≤ 5.30

**Q:** In one line, give reported pIC50 of the entry C=CC(=O)N1C[C@H]2C[C@@H]1[C@H](c1ccc3ncnc(Nc4cc(C)c(Oc5ccc6c(c5)ncn6C)cc4F)c3n1)C2 [Example 374] .
**A:** ≤ 5.30

**Q:** In one line, give reported pIC50 of the entry CC#CC(=O)N1C[C@@H]2CC[C@H]1CN2c1ccc2ncnc(Nc3ccc(Oc4ccn5ncnc5c4)c(C)c3F)c2n1 [Example 329] .
**A:** 5.85

**Q:** In one line, give reported pIC50 of the entry C=CC(=O)N1CC2CC(C1)N2c1ccc2ncnc(Nc3ccc(Oc4ccc5c(c4)ncn5C)c(C)c3F)c2n1 [Example 335] .
**A:** ≤ 5.30
